Reported DC50 by item:
Molecular target: IKZF2 (Homo sapiens, UniProt Q96SW2+Q9UKS7)
Sequence (Q9UKS7 whole entry, one chain of several): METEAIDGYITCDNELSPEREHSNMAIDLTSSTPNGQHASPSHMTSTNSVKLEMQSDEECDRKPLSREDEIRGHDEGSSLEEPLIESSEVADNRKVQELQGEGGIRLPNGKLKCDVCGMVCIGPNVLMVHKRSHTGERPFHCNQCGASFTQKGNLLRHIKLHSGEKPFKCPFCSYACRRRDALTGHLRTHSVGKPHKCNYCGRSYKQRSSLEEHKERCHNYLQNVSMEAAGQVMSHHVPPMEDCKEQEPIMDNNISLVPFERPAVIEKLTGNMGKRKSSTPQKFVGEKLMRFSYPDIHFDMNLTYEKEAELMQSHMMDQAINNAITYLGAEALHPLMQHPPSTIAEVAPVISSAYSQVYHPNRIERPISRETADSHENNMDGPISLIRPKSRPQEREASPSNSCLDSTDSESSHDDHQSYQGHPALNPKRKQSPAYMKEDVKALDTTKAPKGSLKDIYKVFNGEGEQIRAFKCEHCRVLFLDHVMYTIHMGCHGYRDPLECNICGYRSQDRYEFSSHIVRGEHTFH
Assay: Prolabel quantification of IKZF2 protein levels in 293GT cells
Type: cell-based
Details: Prolabel assay, 293GT cells; read-out: IKZF2 EC50
Protocol: The Prolabel system from DiscoverX was used to develop high-throughput and quantitative assays to measure changes in IKZF1, IKZF2 and GSPT1 protein levels in response to compounds. […] The complementary fragment of beta-galactosidase (from DiscoverX), is added to the prolabel tag to form an active beta galactosidase enzyme whose activity can be precisely measured. In this way, the levels of a fusion protein with the prolabel tag can be quantified in cell lysates. […]
Express the result in nM but write the number alone.

Consider the following illustrative entries.
| MOLECULE | READOUT_UNIT | DC50 |
| --- | --- | --- |
| O=C1CCC(N2Cc3cc(C4CCN(Cc5cnc(Cl)s5)CC4)ccc3C2=O)C(=O)N1 (centres unmarked) [Compound I-10] | nM | 85 |
| O=C1CCC(N2Cc3cc(C4CCN(Cc5ccccc5Cl)CC4)ccc3C2=O)C(=O)N1 (centres unmarked) [Compound I-18] | nM | 19 |
| Cc1cccc(CN2CCC(c3ccc4c(c3)CN(C3CCC(=O)NC3=O)C4=O)CC2)c1 (centres unmarked) [Compound I-173] | nM | 74 |
| NC(=O)c1ccc(CN2CCC(c3ccc4c(c3)CN(C3CCC(=O)NC3=O)C4=O)CC2)cc1 (centres unmarked) [Compound I-71] | nM | 27 |
| Cc1onc(-c2ccccc2)c1CN1CCC(c2ccc3c(c2)CN(C2CCC(=O)NC2=O)C3=O)CC1 (centres unmarked) [Compound I-251] | nM | 21 |

Challenge: Please give the measured DC50 for this molecule: O=C1CCC(N2Cc3cc(C4CCN(Cc5nc6ccccc6s5)CC4)ccc3C2=O)C(=O)N1 (centres unmarked) [Compound I-200]
Response given: 67

Challenge: // same read-out, input: O=C1CCC(N2Cc3cc(C4CCN(Cc5cnc(N6CCOCC6)nc5)CC4)ccc3C2=O)C(=O)N1 (centres unmarked) [Compound I-147]
Response given: 25

Challenge: // same read-out, input: C[C@H]1CC(c2ccc3c(c2)CN(C2CCC(=O)NC2=O)C3=O)CCN1Cc1ccccc1 (some centres unmarked) [Compound I-160]
Response given: 18

###

Reported DC50 by item:
molecular target: IKZF2 (Homo sapiens, UniProt Q96SW2+Q9UKS7); assay: Prolabel quantification of IKZF2 protein levels in 293GT cells; assay type: cell-based; details: Prolabel assay, 293GT cells; read-out: IKZF2 EC50
Express the result in nM but write the number alone.

| MOLECULE | READOUT_UNIT | DC50 |
| --- | --- | --- |
| O=C1CCC(N2Cc3cc(C4CCN(Cc5ccccn5)CC4)ccc3C2=O)C(=O)N1 (stereo not shown) | nM | 53 |
| O=C1CCC(N2Cc3cc(C4CCN(Cc5cc(C6CC6)[nH]n5)CC4)ccc3C2=O)C(=O)N1 (stereo not shown) | nM | 170 |
| O=C1CCC(N2Cc3cc(C4CCN(Cc5ccccc5C(F)(F)F)CC4)ccc3C2=O)C(=O)N1 (stereo not shown) | nM | 14 |

Challenge: Please give the measured DC50 for this molecule: O=C1CCC(N2Cc3cc(C4CCN(Cc5cccc6cccnc56)CC4)ccc3C2=O)C(=O)N1 (stereo not shown)
Response given: 29

###

Reported DC50 by item:
target: IKZF1 (Homo sapiens, UniProt Q13422+Q96SW2); test: Prolabel quantification of IKZF1 protein levels in 293GT cells; format: cell-based; settings: Prolabel assay, read-out: IKZF1 EC50
Sequence (Q13422 whole entry): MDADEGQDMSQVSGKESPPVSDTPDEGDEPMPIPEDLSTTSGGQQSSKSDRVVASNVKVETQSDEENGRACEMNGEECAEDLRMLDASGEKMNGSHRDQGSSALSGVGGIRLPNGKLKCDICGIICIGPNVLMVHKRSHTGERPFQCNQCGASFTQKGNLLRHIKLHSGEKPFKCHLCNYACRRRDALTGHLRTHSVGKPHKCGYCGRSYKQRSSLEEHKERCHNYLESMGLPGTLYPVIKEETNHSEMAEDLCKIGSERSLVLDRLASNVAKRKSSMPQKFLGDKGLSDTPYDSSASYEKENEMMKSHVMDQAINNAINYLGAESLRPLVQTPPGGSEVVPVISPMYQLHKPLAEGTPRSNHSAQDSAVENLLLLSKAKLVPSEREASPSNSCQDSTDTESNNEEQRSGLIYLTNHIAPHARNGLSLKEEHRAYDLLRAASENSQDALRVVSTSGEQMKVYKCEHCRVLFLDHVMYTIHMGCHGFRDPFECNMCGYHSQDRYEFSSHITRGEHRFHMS
Sequence (Q96SW2 whole entry): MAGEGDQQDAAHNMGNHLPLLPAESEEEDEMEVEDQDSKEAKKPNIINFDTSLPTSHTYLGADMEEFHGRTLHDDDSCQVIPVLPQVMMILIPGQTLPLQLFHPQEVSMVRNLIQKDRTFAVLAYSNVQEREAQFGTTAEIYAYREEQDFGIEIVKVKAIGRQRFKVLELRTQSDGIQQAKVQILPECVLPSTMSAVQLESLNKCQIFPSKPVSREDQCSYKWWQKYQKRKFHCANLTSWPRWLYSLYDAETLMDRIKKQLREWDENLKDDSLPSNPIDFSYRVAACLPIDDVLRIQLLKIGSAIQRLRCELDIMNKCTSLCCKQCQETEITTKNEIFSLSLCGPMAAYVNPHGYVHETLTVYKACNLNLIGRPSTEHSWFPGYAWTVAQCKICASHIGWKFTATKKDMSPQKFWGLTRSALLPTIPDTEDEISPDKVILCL
Sequence (Q16531 whole entry partner): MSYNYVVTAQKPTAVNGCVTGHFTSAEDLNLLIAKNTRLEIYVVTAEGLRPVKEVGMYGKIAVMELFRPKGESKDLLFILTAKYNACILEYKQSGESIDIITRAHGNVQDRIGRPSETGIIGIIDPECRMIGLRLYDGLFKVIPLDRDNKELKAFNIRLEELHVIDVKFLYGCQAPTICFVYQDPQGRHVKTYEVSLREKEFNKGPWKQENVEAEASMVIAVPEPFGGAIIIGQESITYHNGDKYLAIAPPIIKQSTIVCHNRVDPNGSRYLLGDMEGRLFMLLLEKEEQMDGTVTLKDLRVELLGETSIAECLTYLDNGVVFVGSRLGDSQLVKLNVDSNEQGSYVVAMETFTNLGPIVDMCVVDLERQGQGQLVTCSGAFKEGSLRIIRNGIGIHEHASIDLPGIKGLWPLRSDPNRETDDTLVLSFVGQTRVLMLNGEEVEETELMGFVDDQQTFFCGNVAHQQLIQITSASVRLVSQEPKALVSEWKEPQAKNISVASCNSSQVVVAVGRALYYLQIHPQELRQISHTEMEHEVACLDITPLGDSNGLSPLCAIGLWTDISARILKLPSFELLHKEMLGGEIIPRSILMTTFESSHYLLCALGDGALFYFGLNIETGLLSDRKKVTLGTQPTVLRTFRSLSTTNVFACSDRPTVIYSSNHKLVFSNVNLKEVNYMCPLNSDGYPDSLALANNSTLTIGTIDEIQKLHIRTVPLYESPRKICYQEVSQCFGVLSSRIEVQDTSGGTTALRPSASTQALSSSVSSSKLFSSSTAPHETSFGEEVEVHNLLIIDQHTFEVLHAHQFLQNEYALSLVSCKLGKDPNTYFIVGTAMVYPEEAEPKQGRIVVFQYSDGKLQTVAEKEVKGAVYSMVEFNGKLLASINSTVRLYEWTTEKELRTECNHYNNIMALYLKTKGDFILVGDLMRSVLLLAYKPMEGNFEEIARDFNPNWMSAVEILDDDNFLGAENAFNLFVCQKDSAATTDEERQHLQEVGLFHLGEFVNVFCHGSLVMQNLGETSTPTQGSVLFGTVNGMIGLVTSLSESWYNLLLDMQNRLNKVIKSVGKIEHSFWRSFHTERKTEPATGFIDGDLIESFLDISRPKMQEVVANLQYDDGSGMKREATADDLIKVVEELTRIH

Consider the following illustrative entries.
| MOLECULE | ASSAY_TARGET | DC50 |
| --- | --- | --- |
| O=C1CCC(N2Cc3cc(C4CCN(Cc5ccc6c(c5)OCCO6)CC4)ccc3C2=O)C(=O)N1 (centres unmarked) | IKZF1 (Homo sapiens, UniProt Q13422+Q96SW2) | > 30 µM |
| O=C1CCC(N2Cc3cc(C4CCN(Cc5cccc6cccnc56)CC4)ccc3C2=O)C(=O)N1 (centres unmarked) | IKZF1 (Homo sapiens, UniProt Q13422+Q96SW2) | > 50 µM |
| O=C1CCC(N2Cc3cc(C4CCN(Cc5cccc(C(F)F)c5)CC4)ccc3C2=O)C(=O)N1 (centres unmarked) | IKZF1 (Homo sapiens, UniProt Q13422+Q96SW2) | > 30 µM |
| N#Cc1cccc(CN2CCC(c3ccc4c(c3)CN(C3CCC(=O)NC3=O)C4=O)CC2)n1 (centres unmarked) | IKZF1 (Homo sapiens, UniProt Q13422+Q96SW2) | > 30 µM |

Now for the molecule whose DC50 we want.
Challenge: Notebook: pull reported DC50 for IKZF1 (Homo sapiens, UniProt Q13422+Q96SW2), entry O=C1CCC(N2Cc3cc(C4CCN(Cc5ccc6[nH]ncc6c5)CC4)ccc3C2=O)C(=O)N1 (centres unmarked)
Response given: > 25 µM

###

Reported DC50 by item:
biological target: GSPT1 (Homo sapiens, UniProt P15170+Q96SW2); test: Prolabel quantification of GSPT1 protein levels in 293GT cells; format: cell-based; settings: Prolabel assay, read-out: GSPT1 EC50
Sequence (P15170 whole entry): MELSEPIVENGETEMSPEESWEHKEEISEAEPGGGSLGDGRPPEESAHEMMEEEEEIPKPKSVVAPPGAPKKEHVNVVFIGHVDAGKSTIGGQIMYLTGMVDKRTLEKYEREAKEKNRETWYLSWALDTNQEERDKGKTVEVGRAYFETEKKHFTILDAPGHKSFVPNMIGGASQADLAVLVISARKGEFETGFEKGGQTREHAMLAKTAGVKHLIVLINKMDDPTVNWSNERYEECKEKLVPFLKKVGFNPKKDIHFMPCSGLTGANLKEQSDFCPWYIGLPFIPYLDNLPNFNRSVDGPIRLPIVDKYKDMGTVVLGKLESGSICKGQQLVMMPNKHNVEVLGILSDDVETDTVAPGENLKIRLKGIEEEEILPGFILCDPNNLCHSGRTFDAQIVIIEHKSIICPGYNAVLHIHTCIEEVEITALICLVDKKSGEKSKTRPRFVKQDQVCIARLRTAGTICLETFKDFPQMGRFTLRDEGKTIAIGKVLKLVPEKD
Sequence (Q96SW2 whole entry): as the sequence (Q96SW2 whole entry) above
Sequence (Q16531 whole entry partner): as the sequence (Q16531 whole entry partner) above

Consider the following illustrative entries.
| COMPOUND | DC50 |
| --- | --- |
| O=C1CCC(N2Cc3cc(C4CCN(CC5CCCCC5)CC4)ccc3C2=O)C(=O)N1 (stereo not drawn) [Compound I-11] | > 50 µM |
| CC(C)(C)c1nc(CN2CCC(c3ccc4c(c3)CN(C3CCC(=O)NC3=O)C4=O)CC2)cs1 (stereo not drawn) [Compound I-143] | > 30 µM |
| O=C1CCC(N2Cc3cc(C4CCN(Cc5ccccc5)CC4)ccc3C2=O)C(=O)N1 (stereo not drawn) [Compound I-57] | > 50 µM |
| CC(c1ccccc1)N1CCC(c2ccc3c(c2)CN(C2CCC(=O)NC2=O)C3=O)CC1 (racemic) [Compound I-62] | > 30 µM |
| COc1ncc(CN2CCC(c3ccc4c(c3)CN(C3CCC(=O)NC3=O)C4=O)CC2)cn1 (stereo not drawn) [Compound I-68] | > 30 µM |

Challenge: Please give the measured DC50 for this compound: O=C1CCC(N2Cc3cc(C4CCN(Cc5ccc(C(F)F)cc5)CC4)ccc3C2=O)C(=O)N1 (stereo not drawn) [Compound I-70]
Response given: > 30 µM

Challenge: // same read-out, input: CN(C)S(=O)(=O)c1ccc(CN2CCC(c3ccc4c(c3)CN(C3CCC(=O)NC3=O)C4=O)CC2)cc1 (stereo not drawn) [Compound I-237]
Response given: > 30 µM

Challenge: // same read-out, input: Cn1nc(CN2CCC(c3ccc4c(c3)CN(C3CCC(=O)NC3=O)C4=O)CC2)c2ccccc21 (stereo not drawn) [Compound I-203]
Response given: > 30 µM

Challenge: // same read-out, input: O=C1CCC(N2Cc3cc(C4CCN(Cc5ccc(F)c(F)c5)CC4)ccc3C2=O)C(=O)N1 (stereo not drawn) [Compound I-64]
Response given: > 30 µM

Challenge: // same read-out, input: O=C1CCC(N2Cc3cc(C4CCN(Cc5ccc6cn[nH]c6c5)CC4)ccc3C2=O)C(=O)N1 (stereo not drawn) [Compound I-137]
Response given: > 30 µM

Challenge: // same read-out, input: O=C1CCC(N2Cc3cc(C4CCN(Cc5ccnc6ccccc56)CC4)ccc3C2=O)C(=O)N1 (stereo not drawn) [Compound I-214]
Response given: > 30 µM

Challenge: // same read-out, input: CC(C)(C)c1cccc(CN2CCC(c3ccc4c(c3)CN(C3CCC(=O)NC3=O)C4=O)CC2)c1 (stereo not drawn) [Compound I-107]
Response given: > 30 µM

Challenge: // same read-out, input: O=C1CCC(N2Cc3cc(C4CCN(Cc5cnc(N6CCOCC6)nc5)CC4)ccc3C2=O)C(=O)N1 (stereo not drawn) [Compound I-147]
Response given: > 30 µM

Challenge: // same read-out, input: O=C1CCC(N2Cc3cc(C4CCN(Cc5csc(-c6ccccc6)n5)CC4)ccc3C2=O)C(=O)N1 (stereo not drawn) [Compound I-211]
Response given: > 30 µM

Challenge: // same read-out, input: O=C1CCC(N2Cc3cc(C4CCN(Cc5cnc(N6CCCC6)nc5)CC4)ccc3C2=O)C(=O)N1 (stereo not drawn) [Compound I-142]
Response given: > 30 µM

Challenge: // same read-out, input: COc1ccc(CN2CCC(c3ccc4c(c3)CN(C3CCC(=O)NC3=O)C4=O)CC2)cc1 (stereo not drawn) [Compound I-39]
Response given: > 50 µM

Challenge: // same read-out, input: N#CCc1ccc(CN2CCC(c3ccc4c(c3)CN(C3CCC(=O)NC3=O)C4=O)CC2)cc1 (stereo not drawn) [Compound I-206]
Response given: > 30 µM

Challenge: // same read-out, input: O=C1CCC(N2Cc3cc(C4CCN(CC5CCCc6ccccc65)CC4)ccc3C2=O)C(=O)N1 (stereo not drawn) [Compound I-168]
Response given: > 50 µM

Challenge: // same read-out, input: CN(C)S(=O)(=O)c1cccc(CN2CCC(c3ccc4c(c3)CN(C3CCC(=O)NC3=O)C4=O)CC2)c1 (stereo not drawn) [Compound I-216]
Response given: > 30 µM

Challenge: // same read-out, input: CCC(C)(C)c1ccc(CN2CCC(c3ccc4c(c3)CN(C3CCC(=O)NC3=O)C4=O)CC2)cc1 (stereo not drawn) [Compound I-89]
Response given: > 30 µM

Challenge: // same read-out, input: O=C1CCC(N2Cc3cc(C4CCN(Cc5ccc(-c6ccccc6)cc5)CC4)ccc3C2=O)C(=O)N1 (stereo not drawn) [Compound I-90]
Response given: > 50 µM

Challenge: // same read-out, input: O=C1CCC(N2Cc3cc(C4CCN(Cc5nc6ccsc6c(=O)[nH]5)CC4)ccc3C2=O)C(=O)N1 (stereo not drawn) [Compound I-213]
Response given: > 30 µM

Challenge: // same read-out, input: N#Cc1ccc(CN2CCC(c3ccc4c(c3)CN(C3CCC(=O)NC3=O)C4=O)CC2)cc1 (stereo not drawn) [Compound I-31]
Response given: > 50 µM
